# Subject Of Test: UniProtKB P23977
# Assay Text: Binding affinity towards dopamine transporter using [3H]- mazindol as radioligand in rat striatal membranes
# Assay type: cell membranes, Striatum, Membrane
Provide the reported pKi of each item.
FYI, pKi means -log10 of a concentration in mol per litre.

Report pKi from UniProtKB P23977 testing of COC(=O)[C@H]1C2CCC(C[C@H]1OC(=O)c1ccccc1)O2 (stereo partly specified)
4.42

Report pKi from UniProtKB P23977 testing of COC(=O)[C@@H]1C2CCC(C[C@H]1OC(=O)c1ccccc1)O2 (stereo partly specified)
4.47

Report pKi from UniProtKB P23977 testing of COC(=O)[C@H]1C2CCC(C[C@@H]1OC(=O)c1ccccc1)O2 (stereo in doubt; (+))
4.53

Report pKi from UniProtKB P23977 testing of COC(=O)[C@H]1C2CCC(C[C@@H]1OC(=O)c1ccccc1)O2 (stereo in doubt; (-))
5.33

Report pKi from UniProtKB P23977 testing of COC(=O)[C@@H]1C2CCC(C[C@@H]1OC(=O)c1ccccc1)O2 (stereo in doubt; (+))
5.51

Report pKi from UniProtKB P23977 testing of COC(=O)[C@@H]1C2CCC(C[C@@H]1OC(=O)c1ccccc1)O2 (stereo in doubt; (-))
5.38

----------
# Subject Of Test: Sodium-dependent dopamine transporter (Rattus norvegicus)
# Sequence (P23977 whole entry): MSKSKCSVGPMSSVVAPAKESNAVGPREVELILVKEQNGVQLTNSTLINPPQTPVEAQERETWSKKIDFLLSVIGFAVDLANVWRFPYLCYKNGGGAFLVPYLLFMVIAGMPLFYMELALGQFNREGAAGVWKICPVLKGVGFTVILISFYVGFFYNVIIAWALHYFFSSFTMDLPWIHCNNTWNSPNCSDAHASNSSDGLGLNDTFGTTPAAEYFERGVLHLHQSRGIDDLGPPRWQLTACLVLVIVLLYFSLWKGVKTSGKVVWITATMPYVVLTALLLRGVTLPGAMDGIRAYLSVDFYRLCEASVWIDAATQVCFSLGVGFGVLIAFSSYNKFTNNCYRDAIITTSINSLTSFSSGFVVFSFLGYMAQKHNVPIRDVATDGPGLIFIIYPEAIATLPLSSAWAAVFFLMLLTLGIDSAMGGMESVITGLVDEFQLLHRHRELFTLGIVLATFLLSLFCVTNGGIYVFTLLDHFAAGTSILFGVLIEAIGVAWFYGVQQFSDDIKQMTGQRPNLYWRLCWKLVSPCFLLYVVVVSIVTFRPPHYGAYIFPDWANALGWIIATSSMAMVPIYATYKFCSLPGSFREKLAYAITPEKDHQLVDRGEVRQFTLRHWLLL
# Assay Text: Inhibition of high affinity uptake of [3H]dopamine into striatal nerve endings (synaptosomes)
# Assay type: subcellular, Brain
pKi: −log10 of the molar value.
Response key: t means pKi >= 5; f means pKi < 5.

Does the compound COC(=O)[C@H]1C2CCC(C[C@H]1OC(=O)c1ccccc1)O2 (stereo partly specified) have recorded pKi that is 5 or more?
f

Does the compound COC(=O)[C@@H]1C2CCC(C[C@H]1OC(=O)c1ccccc1)O2 (stereo partly specified) have recorded pKi that is 5 or more?
f

Does the compound COC(=O)[C@H]1C2CCC(C[C@@H]1OC(=O)c1ccccc1)O2 (stereo in doubt; (-)) have recorded pKi that is 5 or more?
t

Does the compound COC(=O)[C@H]1C2CCC(C[C@@H]1OC(=O)c1ccccc1)O2 (stereo in doubt; (+)) have recorded pKi that is 5 or more?
f
